experiment: Viability qHTS for spleen associated tyrosine kinase inhibitor (SYKi) drug resistant MV4-11 cells (AID 1963824); settings: SYKi-resistant MV4-11 viability, CellTiter-Glo, 72 h; series mostly up to 45 µM; note: nearly all actives have a fitted effect of over 35% in size
Results filed as inconclusive are left out. Activity calls are given as the source filed them. Calls come from the whole dose curve; as a rule, active = well fitted cell-killing curve with a large enough effect; inconclusive = small, poorly fitted or top-dose-only effect, or effect the other way; inactive = no such curve, though single readings can be large or run the other way. Bridge positions count the residues as written; N and C are the ends. Square brackets hold non-standard residues; d marks the D form. Peptide text beside a SMILES is read from it. * marks the point of attachment. ξ: configuration not given here. Octanoyl(6-Me) = CCC(C)CCCCC(=O)*; ξThr(3R) = C[C@@H](O)C(N)C(=O)O; dDab = NCC[C@@H](N)C(=O)O; Dab = NCC[C@H](N)C(=O)O
Select the matching outcome among active, inactive

Q: Check the results log: what was the call for CCC(C)CCCCC(=O)N[C@@H](CCN)C(=O)NC(C(=O)N[C@H](CCN)C(=O)N[C@@H]1CCNC(=O)C([C@@H](C)O)NC(=O)[C@@H](CCN)NC(=O)[C@@H](CCN)NC(=O)[C@@H](CC(C)C)NC(=O)[C@H](Cc2ccccc2)NC(=O)[C@H](CCN)NC1=O)[C@@H](C)O (stereo partly drawn) ({Octanoyl(6-Me)}-[Dab][ξThr(3R)][dDab][dDab][Dab]F[dL][dDab][dDab][ξThr(3R)]; lactam 4-C) ?
Ans: inactive

Q: Short answer needed: outcome of this test for CC1=C[C@@H]2[C@@H]([C@@H](O)C[C@@]3(C)[C@H]2C[C@@H](C)[C@]3(O)C(=O)CO)[C@@]2(C)Cc3cnn(-c4ccccc4)c3C=C12 ?
Ans: active

Q: Entry CC(NC(=O)C(O)C(C)C)C(=O)NC1C(=O)N(C)CCc2ccccc21 (stereo unspecified) : call = ?
Ans: inactive

Q: Please state the recorded outcome for this compound: Cc1cc(Nc2cc(C)c(C#N)c(NC(C)CCCC(C)(C)O)n2)n[nH]1 (stereo unspecified)
Ans: active

Q: Each compound tested received a call. Report the one for O=C(OC1C[C@H]2CC[C@@H](C1)[N+]21CCCC1)C(O)(c1ccccc1)c1ccccc1 (stereo partly specified) .
Ans: inactive

Q: Write down the call the test reported for this compound. Item: CNC(=O)c1ccccc1Nc1nc(Nc2ccc3c(c2OC)CCC[C@@H](N2CCN(CCO)CC2)C3)ncc1Cl
Ans: active

Q: What was the test verdict on CC1C(=O)OCC2=CC[N+]3([O-])CCC(OC(=O)C(C)(O)C1(C)O)C23 (stereo unspecified) ?
Ans: inactive

Q: // return assay outcome for CC(C)=CCC/C(C)=C/COCC1OC(n2ccc(=O)[nH]c2=O)C(O)C1O (stereo unspecified)
Ans: active

Q: What classification did COc1c(O[C@@H]2O[C@H](CO)[C@@H](O)[C@H](O)[C@H]2O)c(CCC(=O)O)cc2ccoc12 end up with in this test?
Ans: inactive

Q: What did this assay record as the result for C/C(=N\O)c1ccc(OCC(=O)N2CCCCC2)cc1 ?
Ans: inactive

Q: Returns: the outcome recorded for Cc1nnc(-c2sc(NC(=O)[C@H](C(C)C)n3c(=O)[nH]c4ccccc4c3=O)nc2C)o1 in this assay.
Ans: inactive

Q: Could you kindly confirm the outcome this assay logged for CC(C)C1NC(=O)CNC(=O)C2CCCN2C(=O)C(Cc2c[nH]c3ccccc23)NC(=O)CNC(=O)C(Cc2ccc(O)cc2)NC(=O)CNC1=O (stereo unspecified) ?
Ans: inactive

Q: Recorded test outcome, item O=C1[C@H](Cc2ccc(O)cc2)N2C(=O)CCN(C(=O)NCc3ccccc3)[C@H]2CN1Cc1cccc2ccccc12
Ans: active

Q: Assay outcome for C/C1=C\CCC2=CC(OC2=O)C(C)(C)/C=C/C1=O (stereo unspecified) : what was it?
Ans: active

Q: Hi team, can someone confirm the assay call for CC(C)O[C@@H]1O[C@H](CO)[C@@H](O)[C@H](O)[C@H]1O ?
Ans: inactive

Q: Give the logged outcome of this assay for the following compound: COC(=N)c1nc2ccc3ncnc(Nc4ccc(F)cc4Br)c3c2s1
Ans: active
